# Test system: ivyleaf morningglory (Ipomoea hederacea, IPOHE)
# assay_overview: Post-emerge test, greenhouse herbicide activity screening
# Assay type: in vivo
# particulars: post-emerge, 250 g ai/ha, 14 days after application, rating scale 0-100
Output label 1 for records whose phytotoxicity rating IPOHE is lower than 90, label 0 for records at or above 90.

{"structure_smiles": "COc1c(Cl)cc(F)c(-n2c(=O)cc(C(F)(F)F)n(C)c2=O)c1N(C(=O)c1ccc(C(F)(F)F)cc1)C(=O)c1ccc(C(F)(F)F)cc1", "cat": "label 0"}
{"structure_smiles": "COc1c(Cl)cc(F)c(-n2c(=O)cc(C(F)(F)F)n(C)c2=O)c1NC(=O)COCc1ccccc1", "cat": "label 0"}
{"structure_smiles": "COc1c(Cl)cc(F)c(-n2c(=O)cc(C(F)(F)F)n(C)c2=O)c1NC(=O)c1cc([N+](=O)[O-])cc([N+](=O)[O-])c1", "cat": "label 1"}
{"structure_smiles": "COc1c(Cl)cc(F)c(-n2c(=O)cc(C(F)(F)F)n(C)c2=O)c1NC(=O)c1c(F)cccc1F", "cat": "label 0"}
{"structure_smiles": "Cn1c(C(F)(F)F)cc(=O)n(-c2ccc(C(N)=S)cc2NC(=O)c2ccc3ccccc3c2)c1=O", "cat": "label 1"}
{"structure_smiles": "Cn1c(C(F)(F)F)cc(=O)n(-c2c(F)cc(Cl)c(OCC#N)c2NC(=O)c2ccc3ccccc3c2)c1=O", "cat": "label 0"}

====

# Tested on: barnyardgrass (Echinochloa crus-galli, ECHCG)
# assay_overview: Pre-emerge test, greenhouse herbicide activity screening
# Format: in vivo
# particulars: pre-emerge, 250 g ai/ha, 14 days after application, rating scale 0-100
List of phytotoxicity rating ECHCG values.
reported_metric: phytotoxicity rating ECHCG

{"compound": "CCCOC(=O)C(Cl)Cc1c(OCC)c(Cl)cc(F)c1-n1c(=O)cc(C(F)(F)F)n(C)c1=O (centres unmarked) [14-65]", "tested_target": "barnyardgrass (Echinochloa crus-galli, ECHCG)", "reported_metric": "phytotoxicity rating ECHCG", "reported": 80}
{"compound": "COc1c(Cl)cc(F)c(-n2c(=O)cc(C(F)(F)F)n(C)c2=O)c1NNC(=O)c1ccccc1 [15-3]", "tested_target": "barnyardgrass (Echinochloa crus-galli, ECHCG)", "reported_metric": "phytotoxicity rating ECHCG", "reported": 100}
{"compound": "CCOC(=O)CC(C)=NNc1c(OC)c(Cl)cc(F)c1-n1c(=O)cc(C(F)(F)F)n(C)c1=O [15-16]", "tested_target": "barnyardgrass (Echinochloa crus-galli, ECHCG)", "reported_metric": "phytotoxicity rating ECHCG", "reported": 100}
{"compound": "COc1c(Cl)cc(F)c(-n2c(=O)cc(C(F)(F)F)n(C)c2=O)c1SC(C)C [17-2]", "tested_target": "barnyardgrass (Echinochloa crus-galli, ECHCG)", "reported_metric": "phytotoxicity rating ECHCG", "reported": 0}
{"compound": "COc1c(Cl)cc(F)c(-n2c(=O)cc(C(F)(F)F)n(C)c2=O)c1SCCO [17-5]", "tested_target": "barnyardgrass (Echinochloa crus-galli, ECHCG)", "reported_metric": "phytotoxicity rating ECHCG", "reported": 0}
{"compound": "COc1c(Cl)cc(F)c(-n2c(=O)cc(C(F)(F)F)n(C)c2=O)c1NNC(=O)c1ccc(F)cc1F [15-4]", "tested_target": "barnyardgrass (Echinochloa crus-galli, ECHCG)", "reported_metric": "phytotoxicity rating ECHCG", "reported": 100}
{"compound": "COc1c(Cl)cc(F)c(-n2c(=O)cc(C(F)(F)F)n(C)c2=O)c1N [Compound 1-4]", "tested_target": "barnyardgrass (Echinochloa crus-galli, ECHCG)", "reported_metric": "phytotoxicity rating ECHCG", "reported": 100}
{"compound": "COc1c(Cl)cc(F)c(-n2c(=O)cc(C(F)(F)F)n(C)c2=O)c1NN=C(C(F)(F)F)C(F)(F)F [15-21]", "tested_target": "barnyardgrass (Echinochloa crus-galli, ECHCG)", "reported_metric": "phytotoxicity rating ECHCG", "reported": 100}
{"compound": "COc1c(Cl)cc(F)c(-n2c(=O)cc(C(F)(F)F)n(C)c2=O)c1NN [Compound 15-1]", "tested_target": "barnyardgrass (Echinochloa crus-galli, ECHCG)", "reported_metric": "phytotoxicity rating ECHCG", "reported": 100}
{"compound": "CCOC(=O)C(Cl)Cc1c(C)c(Cl)cc(F)c1-n1c(=O)cc(C(F)(F)F)n(C)c1=O (centres unmarked) [14-54]", "tested_target": "barnyardgrass (Echinochloa crus-galli, ECHCG)", "reported_metric": "phytotoxicity rating ECHCG", "reported": 0}
{"compound": "CCOC(=O)C(Cl)Cc1cc(Cl)cc(F)c1-n1c(=O)cc(C(F)(F)F)n(C)c1=O (centres unmarked) [14-60]", "tested_target": "barnyardgrass (Echinochloa crus-galli, ECHCG)", "reported_metric": "phytotoxicity rating ECHCG", "reported": 20}

====

List of Post-emerge Herbicidal Activity CORN values.
# Tested on: field corn (Zea mays L., var. Dekalb 535, CORN)
# assay_overview: Post-emerge test, crop safety
# Type: in vivo
# particulars: post-emerge, 63 g ai/ha, crop damage rating 0-100 at 14 days after application

{"molecule": "O=C(Nc1cc(Cl)ccc1N1C(=O)C2=C(CCCC2)C1=O)c1ccc2ccccc2c1 [8-36]", "Post-emerge Herbicidal Activity CORN": 10}
{"molecule": "Nc1c(OC2CCCC2)c(Cl)cc(F)c1N1C(=O)C2=C(CCCC2)C1=O [Compound 8-5]", "Post-emerge Herbicidal Activity CORN": 0}
{"molecule": "Cc1nn(-c2c(F)cc(Cl)cc2NC(=O)c2ccc(F)cc2F)c(=O)n1C(F)F [Compound 6-23]", "Post-emerge Herbicidal Activity CORN": 0}
{"molecule": "COc1c(Cl)cc(F)c(N2C(=O)C3=C(CCCC3)C2=O)c1N [8-7]", "Post-emerge Herbicidal Activity CORN": 10}
{"molecule": "C=Cc1ccc(C(=O)Nc2c(OC)c(Cl)cc(F)c2N2C(=O)C3=C(CCCC3)C2=O)cc1 [8-30]", "Post-emerge Herbicidal Activity CORN": 10}
{"molecule": "Cc1c(Cl)cc(F)c(-n2c(=O)cc(C(F)(F)F)n(C)c2=O)c1NC(=O)OCc1ccc(Cl)cc1Cl [4-62]", "Post-emerge Herbicidal Activity CORN": 30}
{"molecule": "CCC(=O)Nc1c(Cl)cc(Cl)c(-n2nc(C)n(C(F)F)c2=O)c1N [Compound 6-19]", "Post-emerge Herbicidal Activity CORN": 0}
{"molecule": "O=C(Nc1cc(Cl)ccc1-n1c(=O)n2n(c1=S)CCCC2)c1ccc2ccccc2c1 [9-14]", "Post-emerge Herbicidal Activity CORN": 15}

====

# System: barnyardgrass (Echinochloa crus-galli, ECHCG)
# assay_overview: Post-emerge test, greenhouse herbicide activity screening
# Format: in vivo
# particulars: post-emerge, 63 g ai/ha, 14 days after application, rating scale 0-100
# Procedure: A standard greenhouse herbicide activity screening system was used to evaluate the herbicidal efficacy and crop safety of these test compounds. […] At 14 days after application of the test materials, phytotoxicity ratings were recorded. […]
reported_metric: ECHCG phytotoxicity rating

{"structure_smiles": "COc1c(Br)cc(F)c(-n2c(=O)cc(C(F)(F)F)n(C)c2=O)c1N(C(=O)C=Cc1ccccc1)C(=O)C=Cc1ccccc1", "reported_metric": "ECHCG phytotoxicity rating", "reported": 0}
{"structure_smiles": "COc1c(Cl)cc(F)c(-n2c(=O)cc(C(F)(F)F)n(C)c2=O)c1NC(=O)c1ccc2cccc(F)c2c1", "reported_metric": "ECHCG phytotoxicity rating", "reported": 20}
{"structure_smiles": "COc1c(Cl)cc(F)c(-n2c(=O)cc(C(F)(F)F)n(C)c2=O)c1NC(=O)C=Cc1cccc(Cl)c1", "reported_metric": "ECHCG phytotoxicity rating", "reported": 10}
{"structure_smiles": "COc1c(Cl)cc(F)c(-n2c(=O)cc(C(F)(F)F)n(N)c2=O)c1NC(=O)C=Cc1ccccc1", "reported_metric": "ECHCG phytotoxicity rating", "reported": 0}

====

# Tested on: upland rice (Oryza sp., var. Tebonnet, RICE)
# assay_overview: Post-emerge test, crop safety
# Type: in vivo
# particulars: post-emerge, 250 g ai/ha, 14 days after application, rating scale 0-100
List of RICE phytotoxicity rating (crop damage) values.

{"compound": "CCSCC(=O)Nc1c(OC)c(Cl)cc(F)c1-n1c(=O)cc(C(F)(F)F)n(C)c1=O", "RICE phytotoxicity rating (crop damage)": 10}
{"compound": "CCOC(=O)C(C)SCC(=O)Nc1c(OC)c(Cl)cc(F)c1-n1c(=O)cc(C(F)(F)F)n(C)c1=O (centres unmarked)", "RICE phytotoxicity rating (crop damage)": 10}
{"compound": "COc1c(Cl)cc(F)c(-n2c(=O)cc(C(F)(F)F)n(C)c2=O)c1NC(=O)c1c(C)cccc1C", "RICE phytotoxicity rating (crop damage)": 0}
{"compound": "COc1c(C#N)cc(F)c(-n2c(=O)cc(C(F)(F)F)n(C)c2=O)c1NC(=O)C=Cc1ccccc1", "RICE phytotoxicity rating (crop damage)": 60}
{"compound": "COc1ccccc1C=CC(=O)Nc1c(OC)c(Cl)cc(F)c1-n1c(=O)cc(C(F)(F)F)n(C)c1=O", "RICE phytotoxicity rating (crop damage)": 35}
{"compound": "COc1c(Cl)cc(F)c(-n2c(=O)cc(C(F)(F)F)n(C)c2=O)c1NC(=O)COc1ccc(Cl)cc1Cl", "RICE phytotoxicity rating (crop damage)": 90}
{"compound": "Cn1c(C(F)(F)F)cc(=O)n(-c2c(F)cc(Cl)cc2NC2CC2)c1=O", "RICE phytotoxicity rating (crop damage)": 75}
{"compound": "COc1c(Br)cc(F)c(-n2c(=O)cc(C(F)(F)F)n(C)c2=O)c1NC(=O)C=Cc1ccccc1 [2-175]", "RICE phytotoxicity rating (crop damage)": 80}
